Assay: Plasma AMG 232 pharmacokinetics (HPLC-MS, non-compartmental analysis)
Assay type: in vivo, human
Settings: human, plasma, oral, 240 mg, Day 1, 240-mg dose expansion, WDLPS (n = 9–10); read-out: AUC24h, mean (SD)
PROPERTY: AUC(0-t) (ng·h/mL)

{"columns": ["MOLECULE", "RECORDED VALUE"],
 "data": [
  ["CC(C)[C@@H](CS(=O)(=O)C(C)C)N1C(=O)[C@@](C)(CC(=O)O)C[C@H](c2cccc(Cl)c2)[C@H]1c1ccc(Cl)cc1 [AMG 232]", 9260]
]}

###

Assay: Plasma AMG 232 pharmacokinetics (HPLC-MS, non-compartmental analysis)
Format: in vivo, human
Settings: human, plasma, oral, 240 mg, Day 7, 240-mg dose expansion, Total (n = 47–67); read-out: tmax, median (range)

{"columns": ["ITEM SMILES", "UNIT OF MEASURE", "Tmax"],
 "data": [
  ["CC(C)[C@@H](CS(=O)(=O)C(C)C)N1C(=O)[C@@](C)(CC(=O)O)C[C@H](c2cccc(Cl)c2)[C@H]1c1ccc(Cl)cc1", "h", 2.8]
]}

###

Assay: Plasma AMG 232 pharmacokinetics (HPLC-MS, non-compartmental analysis)
Assay type: in vivo, human
Conditions: human, plasma, oral, 240 mg, Day 7, 240-mg dose expansion, ER + PR– Breast (n = 4); read-out: Vz/F, mean (SD)

{"columns": ["ITEM SMILES", "Vd/F"],
 "data": [
  ["CC(C)[C@@H](CS(=O)(=O)C(C)C)N1C(=O)[C@@](C)(CC(=O)O)C[C@H](c2cccc(Cl)c2)[C@H]1c1ccc(Cl)cc1", "814 L"]
]}

###

Experiment: Plasma AMG 232 pharmacokinetics (HPLC-MS, non-compartmental analysis)
Type: in vivo, human
Details: human, plasma, oral, 240 mg, Day 7, 240-mg dose expansion, Other Solid (n = 9–16); read-out: AUC24h, mean (SD)
Procedure: Non-compartmental analysis was performed using WinNonlin Professional software, version 6.3. Parameters were summarized descriptively.

{"columns": ["COMPOUND", "UNIT OF MEASURE", "AUC(0-t)"],
 "data": [
  ["CC(C)[C@@H](CS(=O)(=O)C(C)C)N1C(=O)[C@@](C)(CC(=O)O)C[C@H](c2cccc(Cl)c2)[C@H]1c1ccc(Cl)cc1 [AMG 232]", "ng·h/mL", 17200]
]}

###

Assay: Plasma AMG 232 pharmacokinetics (HPLC-MS, non-compartmental analysis)
Type: in vivo, human
Conditions: human, plasma, oral, 240 mg, Day 1, 240-mg dose expansion, WDLPS (n = 9–10); read-out: Cmax, mean (SD)

{"columns": ["ITEM SMILES", "UNIT OF MEASURE", "Cmax"],
 "data": [
  ["CC(C)[C@@H](CS(=O)(=O)C(C)C)N1C(=O)[C@@](C)(CC(=O)O)C[C@H](c2cccc(Cl)c2)[C@H]1c1ccc(Cl)cc1", "ng/mL", 1350]
]}

###

Assay: Plasma AMG 232 pharmacokinetics (HPLC-MS, non-compartmental analysis)
Format: in vivo, human
Settings: human, plasma, oral, 240 mg, Day 7, Parts 1 and 2, 240 mg (n = 54–75); read-out: Vz/F, mean (SD)

{"columns": ["COMPOUND", "Vd/F, L"],
 "data": [
  ["CC(C)[C@@H](CS(=O)(=O)C(C)C)N1C(=O)[C@@](C)(CC(=O)O)C[C@H](c2cccc(Cl)c2)[C@H]1c1ccc(Cl)cc1 [AMG 232]", 613]
]}
